System: carrageenin-induced oedema
methodDescription: carrageenin-induced oedema test (anti-inflammatory activity)
Type: in vivo, albino male Wistar rats
conditionLabel: 50 mg/Kg per os, 24 h
Known oedema % inhibition of a selection of molecules
# output: bare number, implied unit %

Consider the worked cases shown below.
molecule	assayResult
Cc1ccc(C(=O)c2ccc(CC(=O)N3CCN(C)CC3)n2C)cc1 [Compound 3-b]	15.2
Cc1ccc(C(=O)c2ccc(CC(=O)O)n2C)cc1 [Tolmetin Na.2H2 O, reference compound]	0.0
COc1ccccc1OC(=O)CNC(=O)Cc1ccc(C(=O)c2ccc(C)cc2)n1C [Compound 1-d]	30.9
CCOC(=O)c1ccc(NC(=O)Cc2ccc(C(=O)c3ccc(C)cc3)n2C)cc1 [Compound 1-h]	9.9
Cc1ccc(C(=O)c2ccc(CC(=O)NNCC(=O)N3CCN(C)CC3)n2C)cc1 [Compound 1-o]	22.1

Q) Write down the reported oedema % inhibition of Cc1ccc(C(=O)c2ccc(CC(=O)N3CCOCC3)n2C)cc1 [Compound 3-a] , test system: carrageenin-induced oedema.
A) 13.4

Q) Could you do the same for Cc1ccc(C(=O)c2ccc(CC(=O)NCC(=O)O)n2C)cc1 [Compound 1-c] , please?
A) 18.7

====

System: gastric lesions
Type: in vivo, male Wistar rats
conditionLabel: 200 mg/Kg orally, 4 consecutive days
Known mean no. of lesions of a selection of compounds
Respond with the number and no other words.

Consider the worked cases shown below.
smilesData	mean no. of lesions
CCOC(=O)c1ccc(NC(=O)Cc2ccc(C(=O)c3ccc(C)cc3)n2C)cc1	2
Cc1ccc(C(=O)c2ccc(CC(=O)N3CCN(C)CC3)n2C)cc1	2

Q) Need mean no. of lesions of `COc1ccccc1OC(=O)CNC(=O)Cc1ccc(C(=O)c2ccc(C)cc2)n1C` , thanks.
A) 2

Q) Could you do the same for `Cc1ccc(C(=O)c2ccc(CC(=O)N3CCOCC3)n2C)cc1` , please?
A) 1.5

Q) Could you do the same for `Cc1ccc(C(=O)c2ccc(CC(=O)NCC(=O)O)n2C)cc1` , please?
A) 2.5

Q) Could you do the same for `Cc1ccc(C(=O)c2ccc(CC(=O)NNCC(=O)N3CCN(C)CC3)n2C)cc1` , please?
A) 2

====

Known oedema % inhibition of a selection of molecules
Test system: carrageenin-induced oedema
methodDescription: carrageenin-induced oedema test (anti-inflammatory activity)
Assay type: in vivo, albino male Wistar rats
conditionLabel: 25 mg/Kg, Table IV (route not given), 2 h
# output: bare number, implied unit %

smilesData	oedema % inhibition [%]
Cc1ccc(C(=O)c2ccc(CC(=O)NCC(=O)O)n2C)cc1	40.0

Q) Need oedema % inhibition of `Cc1ccc(C(=O)c2ccc(CC(=O)N3CCN(C)CC3)n2C)cc1` , thanks.
A) 33.2

Q) Could you do the same for `Cc1ccc(C(=O)c2ccc(CC(=O)N3CCOCC3)n2C)cc1` , please?
A) 28.9

Q) Could you do the same for `Cc1ccc(C(=O)c2ccc(CC(=O)NNCC(=O)N3CCN(C)CC3)n2C)cc1` , please?
A) 39.0

Q) Could you do the same for `CCOC(=O)c1ccc(NC(=O)Cc2ccc(C(=O)c3ccc(C)cc3)n2C)cc1` , please?
A) 30.1

====

methodDescription: in vivo
conditionLabel: mouse, po
readout: LD50 (mg/kg)
# output: bare number, implied unit mg/kg

Q) Need LD50 of `Cc1ccc(C(=O)c2ccc(CC(=O)NCC(=O)O)n2C)cc1` , thanks.
A) 1000

Q) Could you do the same for `Cc1ccc(C(=O)c2ccc(CC(=O)N3CCN(C)CC3)n2C)cc1` , please?
A) 1200

====

Known LD50 of a selection of compounds
methodDescription: in vivo
conditionLabel: rat, po
# output: bare number, implied unit mg/kg

smilesData	readout	assayResult
Cc1ccc(C(=O)c2ccc(CC(=O)N3CCN(C)CC3)n2C)cc1	LD50	1000
COc1ccccc1OC(=O)CNC(=O)Cc1ccc(C(=O)c2ccc(C)cc2)n1C	LD50	1450

Next up:
Q) Need LD50 of `Cc1ccc(C(=O)c2ccc(CC(=O)NCC(=O)O)n2C)cc1` , thanks.
A) 1300

====

System: cough provoked by mechanical stimulation of the tracheal bifurcation mucosa
methodDescription: antitussive activity, mechanically provoked coughing
Type: in vivo, albino Guinea-pigs
conditionLabel: 100 mg/Kg i.p., 1 h after administration
Description: The antitussive effect on albino Guinea-pigs weighing 300 g was evaluated using the method described by Y. Kase (Selected Pharmacological Testing Methods, p.363, Marcel Dekker Inc., New York, 1968). Each dose was tested in a group of animals with a Y cannula inserted into the trachea. […] The reduction in the number of coughs was evaluated at one hour after administration of the compounds under examination by following the plottings for twenty minutes and comparing the response of the control animals.
Known % inhibition, cough amplitude of a selection of compounds
# output: bare number, implied unit %

Q) Need % inhibition, cough amplitude of COc1ccccc1OC(=O)CNC(=O)Cc1ccc(C(=O)c2ccc(C)cc2)n1C [Compound 1-d] , thanks.
A) 30

Q) Could you do the same for Cc1ccc(C(=O)c2ccc(CC(=O)NCC(=O)O)n2C)cc1 [Compound 1-c] , please?
A) 40

Q) Could you do the same for CCOC(=O)c1ccc(NC(=O)Cc2ccc(C(=O)c3ccc(C)cc3)n2C)cc1 [Compound 1-h] , please?
A) 45

====

System: gastric lesions
Format: in vivo, male Wistar rats
conditionLabel: 50 mg/Kg orally, 4 consecutive days
Known % incidence/10 (head is drawing 38) of a selection of compounds
Respond with the number and no other words.

Consider the worked cases shown below.
smilesData	measuredTarget	assayResult
Cc1ccc(C(=O)c2ccc(CC(=O)N3CCOCC3)n2C)cc1	gastric lesions	7
COc1ccccc1OC(=O)CNC(=O)Cc1ccc(C(=O)c2ccc(C)cc2)n1C	gastric lesions	6
CCOC(=O)c1ccc(NC(=O)Cc2ccc(C(=O)c3ccc(C)cc3)n2C)cc1	gastric lesions	7
Cc1ccc(C(=O)c2ccc(CC(=O)NCC(=O)O)n2C)cc1	gastric lesions	7

Next up:
Q) Need % incidence/10 (head is drawing 38) of `Cc1ccc(C(=O)c2ccc(CC(=O)N3CCN(C)CC3)n2C)cc1` , thanks.
A) 7

====

Test system: cough provoked by mechanical stimulation of the tracheal bifurcation mucosa
methodDescription: antitussive activity, mechanically provoked coughing
Type: in vivo, albino Guinea-pigs
conditionLabel: 50 mg/Kg per os, 1 h after administration
Known % inhibition, cough amplitude of a selection of compounds
Could you give the number and then its unit, please?

compound	measuredTarget	readout	assayResult
COc1ccccc1OC(=O)CNC(=O)Cc1ccc(C(=O)c2ccc(C)cc2)n1C [Compound 1-d]	cough provoked by mechanical stimulation of the tracheal bifurcation mucosa	% inhibition, cough amplitude	10%
Cc1ccc(C(=O)c2ccc(CC(=O)O)n2C)cc1 [Tolmetin Na.2H2 O, reference compound]	cough provoked by mechanical stimulation of the tracheal bifurcation mucosa	% inhibition, cough amplitude	0%

Q) Need % inhibition, cough amplitude of Cc1ccc(C(=O)c2ccc(CC(=O)N3CCOCC3)n2C)cc1 [Compound 3-a] , thanks.
A) 15%

Q) Could you do the same for CCOC(=O)c1ccc(NC(=O)Cc2ccc(C(=O)c3ccc(C)cc3)n2C)cc1 [Compound 1-h] , please?
A) 13%

Q) Could you do the same for Cc1ccc(C(=O)c2ccc(CC(=O)NCC(=O)O)n2C)cc1 [Compound 1-c] , please?
A) 12%

Q) Could you do the same for Cc1ccc(C(=O)c2ccc(CC(=O)N3CCN(C)CC3)n2C)cc1 [Compound 3-b] , please?
A) 18%

====

Test system: carrageenin-induced oedema
methodDescription: carrageenin-induced oedema test (anti-inflammatory activity)
Type: in vivo, albino male Wistar rats
conditionLabel: 25 mg/Kg, Table IV (route not given), 24 h
Assign Fulfilled to entries whose oedema % inhibition meets or exceeds 10%; assign Not fulfilled to the rest.

Q) Decide: is the reported value of oedema % inhibition for `Cc1ccc(C(=O)c2ccc(CC(=O)NCC(=O)O)n2C)cc1` equal to or greater than 10%?
A) Not fulfilled

Q) Could you do the same for `CCOC(=O)c1ccc(NC(=O)Cc2ccc(C(=O)c3ccc(C)cc3)n2C)cc1` , please?
A) Fulfilled

Q) Could you do the same for `Cc1ccc(C(=O)c2ccc(CC(=O)NNCC(=O)N3CCN(C)CC3)n2C)cc1` , please?
A) Fulfilled

====

System: carrageenin-induced oedema
methodDescription: carrageenin-induced oedema test (anti-inflammatory activity)
Assay type: in vivo, albino male Wistar rats
conditionLabel: 100 mg/Kg per os, 2 h
readout: oedema % inhibition (%)
# output: bare number, implied unit %

compound	unitAnnotation	oedema % inhibition
Cc1ccc(C(=O)c2ccc(CC(=O)O)n2C)cc1 [Tolmetin Na.2H2 O, reference compound]	%	50.8
Cc1ccc(C(=O)c2ccc(CC(=O)NNCC(=O)N3CCN(C)CC3)n2C)cc1	%	70.1
CCOC(=O)c1ccc(NC(=O)Cc2ccc(C(=O)c3ccc(C)cc3)n2C)cc1	%	66.9
COc1ccccc1OC(=O)CNC(=O)Cc1ccc(C(=O)c2ccc(C)cc2)n1C	%	68.0
Cc1ccc(C(=O)c2ccc(CC(=O)N3CCN(C)CC3)n2C)cc1	%	69.7

Q) Need oedema % inhibition of `Cc1ccc(C(=O)c2ccc(CC(=O)N3CCOCC3)n2C)cc1` , thanks.
A) 60.0

Q) Could you do the same for `Cc1ccc(C(=O)c2ccc(CC(=O)NCC(=O)O)n2C)cc1` , please?
A) 69.0
